# Test system: A549 cells
# MEASUREMENT_DESCRIPTION: Trypan blue cell exclusion assay, cell proliferation and death
# Type: cell-based
# EXPERIMENTAL_CONDITIONS: Homo sapiens, A549, 48 h, read-out: IC50 concentration
# Procedure: To evaluate the effect of Fisetin analogues 3a, 3c and 3e on cell proliferation and death of human lung cancer cells, trypan blue cell exclusion assays were performed. A549 and H1299 cancer cells were treated with different concentrations of three selected Fisetin analogues for 48 h. The Fisetin analogues decreased the viability of cells and caused cell death in both the cell lines in a concentration dependent fashion. […]
PROPERTY_MEASURED: pIC50
Numbers only, as −log10 of the molar value.

Observe how each entry below is paired with its result.
O=c1c(O)c(-c2ccc(Br)cc2)oc2cc(O)ccc12 [analogue 3c, 4′-Bromo-3,7-dihydroxyflavone]: 4.92
O=c1c(O)c(-c2ccc(Br)cc2)oc2ccccc12 [analogue 3a, 4′-Bromo-3-hydroxyflavone]: 4.92

Proceed to the following item.
Name the recorded pIC50 of the molecule listed here: O=c1c(O)c(-c2ccc(Br)cc2)oc2ccc(O)cc12 [analogue 3e, 4′-Bromo-3,6-dihydroxyflavone]
4.91
